molecular target: T1, biotinylated native human ApoC3 (human, UniProt P02656 21-99, biotinylated (site not stated)); assay: SPR, IgG1 over biotinylated ApoC3 on SA chip, pH 5.5
T1 construct: also called biotinylated human ApoC3
T1 sequence (P02656 21-99): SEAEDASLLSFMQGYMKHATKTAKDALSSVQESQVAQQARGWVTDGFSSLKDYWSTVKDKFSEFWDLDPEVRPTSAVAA
# cutoff 700000 M⁻¹ s⁻¹ applies to kon; >= gives fulfilled, < gives not fulfilled

Below are worked cases with known answers.
1) mAb4 (antibody, IgG1, V domains shown, Produced as full length IgG1 (kappa) in ExpiCHO-S cells; also called humanized anti-ApoC3 antibody mAb4) VH: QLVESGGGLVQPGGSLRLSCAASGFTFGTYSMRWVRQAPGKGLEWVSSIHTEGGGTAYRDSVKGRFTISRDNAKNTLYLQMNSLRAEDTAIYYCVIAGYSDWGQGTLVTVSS VL: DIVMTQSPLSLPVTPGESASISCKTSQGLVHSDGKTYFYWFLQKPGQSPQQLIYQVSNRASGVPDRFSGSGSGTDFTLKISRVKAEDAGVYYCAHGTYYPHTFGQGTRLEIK :: not fulfilled
2) mAb2 (antibody, IgG1, V domains shown, Produced as full length IgG1 (kappa) in ExpiCHO-S cells; also called humanized anti-ApoC3 antibody mAb2) VH: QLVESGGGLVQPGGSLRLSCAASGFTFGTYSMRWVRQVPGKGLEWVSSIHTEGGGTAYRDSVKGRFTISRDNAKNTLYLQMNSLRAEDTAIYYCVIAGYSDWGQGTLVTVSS VL: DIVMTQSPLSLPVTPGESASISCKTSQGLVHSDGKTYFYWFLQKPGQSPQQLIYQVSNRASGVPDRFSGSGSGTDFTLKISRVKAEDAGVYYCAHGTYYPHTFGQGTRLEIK :: not fulfilled
3) mAb1 (antibody, IgG1, V domains shown, Produced as full length IgG1 (kappa) in ExpiCHO-S cells; also called humanized anti-ApoC3 antibody mAb1) VH: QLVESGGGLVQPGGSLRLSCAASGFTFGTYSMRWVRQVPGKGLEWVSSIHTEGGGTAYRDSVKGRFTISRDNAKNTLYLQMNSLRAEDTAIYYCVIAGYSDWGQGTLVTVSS VL: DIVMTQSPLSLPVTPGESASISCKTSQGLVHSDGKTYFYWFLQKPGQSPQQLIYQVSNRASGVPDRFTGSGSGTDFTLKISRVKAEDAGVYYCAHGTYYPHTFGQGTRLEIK :: not fulfilled
4) mAb11 (antibody, IgG1, V domains shown, Produced as full length IgG1 (kappa) in ExpiCHO-S cells; also called humanized anti-ApoC3 antibody mAb11) VH: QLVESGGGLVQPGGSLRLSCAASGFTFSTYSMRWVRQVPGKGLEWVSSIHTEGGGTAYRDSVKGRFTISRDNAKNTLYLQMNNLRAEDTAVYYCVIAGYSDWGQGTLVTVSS VL: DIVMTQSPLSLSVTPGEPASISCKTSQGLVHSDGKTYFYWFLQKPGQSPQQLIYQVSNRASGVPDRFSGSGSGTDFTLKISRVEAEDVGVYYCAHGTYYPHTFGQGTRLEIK :: not fulfilled
5) mAb16 (antibody, IgG1, V domains shown, Produced as full length IgG1 (kappa) in ExpiCHO-S cells; also called humanized anti-ApoC3 antibody mAb16) VH: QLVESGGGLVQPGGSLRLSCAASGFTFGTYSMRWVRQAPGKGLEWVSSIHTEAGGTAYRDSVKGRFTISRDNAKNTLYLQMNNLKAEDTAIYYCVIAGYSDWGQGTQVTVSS VL: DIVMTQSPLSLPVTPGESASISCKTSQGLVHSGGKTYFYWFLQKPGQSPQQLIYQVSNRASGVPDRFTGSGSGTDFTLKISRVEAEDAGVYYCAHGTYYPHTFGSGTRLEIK :: fulfilled

Check the entry mAb10 (antibody, IgG1, V domains shown, Produced as full length IgG1 (kappa) in ExpiCHO-S cells; also called humanized anti-ApoC3 antibody mAb10) VH: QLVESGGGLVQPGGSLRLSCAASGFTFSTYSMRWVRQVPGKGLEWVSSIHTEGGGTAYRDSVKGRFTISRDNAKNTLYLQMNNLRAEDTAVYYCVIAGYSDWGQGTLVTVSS VL: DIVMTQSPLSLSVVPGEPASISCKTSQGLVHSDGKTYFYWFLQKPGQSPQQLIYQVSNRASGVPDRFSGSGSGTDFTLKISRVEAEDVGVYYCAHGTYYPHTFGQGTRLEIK : does kon equal or exceed 700000 M⁻¹ s⁻¹?
not fulfilled

Another: mAb5 (antibody, IgG1, V domains shown, Produced as full length IgG1 (kappa) in ExpiCHO-S cells; also called humanized anti-ApoC3 antibody mAb5) VH: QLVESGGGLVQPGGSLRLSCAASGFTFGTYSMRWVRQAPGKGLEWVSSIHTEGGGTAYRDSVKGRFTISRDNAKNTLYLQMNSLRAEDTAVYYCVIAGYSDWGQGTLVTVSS VL: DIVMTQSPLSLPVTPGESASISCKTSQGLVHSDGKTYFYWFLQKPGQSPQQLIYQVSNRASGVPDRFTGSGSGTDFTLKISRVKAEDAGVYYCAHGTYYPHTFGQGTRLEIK
not fulfilled

Another: mAb20 (antibody, IgG1, V domains shown, Produced as full length IgG1 (kappa) in ExpiCHO-S cells; also called humanized anti-ApoC3 antibody mAb20) VH: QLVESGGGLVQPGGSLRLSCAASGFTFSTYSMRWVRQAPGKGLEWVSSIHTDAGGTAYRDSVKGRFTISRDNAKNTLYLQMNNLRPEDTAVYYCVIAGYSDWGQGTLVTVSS VL: DIVMTQSPGSLSVTPGEPASISCKTSQGLVHSGGKTYFYWFLQKPGQSPQQLIYQVSNRASGVPDRFTGSGSGTDFTLKISGVEAEDAGVYYCAHGTYYPHTFGQGTRLEIK
fulfilled
